Measured EC50, listed per entry for reference.
Test system: CMK
Experiment: Secondary dose-response HTS, Cell Titer Glo
Assay type: cell-based, human
Conditions: Homo sapiens; secondary high-throughput screen; CMK; read-out: average effective concentration, CMK
Where a name gives a salt, the structure may show the parent alone.
Write the answer as a number in µM, unit excluded.

Check out these entries, answers already filled in.
MOLECULE	NUMBER
CN(C)C1CCN(C(=O)c2ccc(NC(=O)Nc3ccc(-c4nc(N5CCOCC5)nc(N5CCOCC5)n4)cc3)cc2)CC1	7.7
Cc1c(CN2CCN(C(=O)[C@H](C)O)CC2)sc2c(N3CCOCC3)nc(-c3cnc(N)nc3)nc12	0.52

Pending molecule:
I'd like to know its EC50. The molecule in question is CC[C@]1(O)C[C@@H]2CN(CCc3c([nH]c4ccccc34)[C@@](C(=O)OC)(c3cc4c(cc3OC)N(C)[C@H]3[C@@](O)(C(=O)OC)[C@H](OC(C)=O)[C@]5(CC)C=CCN6CC[C@]43[C@@H]65)C2)C1 [VINBLASTINE SULFATE]
3.8

* * *

Tested on: M07e
Set-up: species or system AML cell lines (8); Primary HTS, single concentration about 10 uM, Cell Titer Glo viability; log10 luminescence, per cent inhibition relative to cycloheximide control
Conditions: 72 h, relative to cycloheximide control, log10 luminescence; inhibitor
Measured M07e %inh, listed per entry for reference.
Write the answer as a number in %, unit excluded.

COMPOUND	M07e %inh / %
C[C@@H](O)[C@@H]1NC(=O)[C@H](CCCCN)NC(=O)[C@@H](Cc2c[nH]c3ccccc23)NC(=O)[C@H](Cc2ccccc2)NC(=O)[C@@H](NC(=O)[C@H](N)Cc2ccccc2)CSSC[C@@H](C(=O)N[C@H](CO)[C@@H](C)O)NC1=O [SJ000520506-1, OCTREOTIDE ACETATE]	-0.4484
Cc1cc(-c2ccco2)cc(C)c1/C=C/c1cncc(-c2nn[nH]n2)c1	4.709
COc1cc(N2CCN(C(C)C)CC2)ccc1Nc1nc(Nc2cccc(F)c2C(=O)O)c2cc[nH]c2n1	1.407
CN=C1NC(=O)/C(=C/c2ccc3ncccc3c2)S1	18.48
CC(=O)[C@@H]1[C@@H](C)N(Cc2ccccc2)C(=O)N[C@H]1c1cccc(C(F)(F)F)c1	-1.436
Fc1ccc(-c2ncn(C3CCNCC3)c2-c2ccnc(Oc3ccc(F)c(F)c3)n2)cc1	-2.095

Pending compound:
I'd like to know its M07e %inh. The compound in question is "CN[C@H](C#Cc1c(F)ccc2c1/C(=C/c1[nH]ccc1OC)C(=O)N2)CO"
77.31

* * *

Measured MOLM-13 %inh, listed per entry for reference.
System: MOLM-13
Parameters: species or system AML cell lines (8); Primary HTS, single concentration about 10 uM, Cell Titer Glo viability; log10 luminescence, per cent inhibition relative to cycloheximide control
Conditions: 72 h, relative to cycloheximide control, log10 luminescence; inhibitor
Write the answer as a number in %, unit excluded.

COMPOUND	ENDPOINT NAME	NUMBER
COc1cc2ncn(-c3cc(OCc4cccs4)c(C(N)=O)s3)c2cc1OC [SJ000573255-1, U21051/7/15]	MOLM-13 %inh	63.69
Cn1cc(C2=C(c3cn(CCO)c4ccccc34)C(=O)NC2=O)c2ccccc21 [SJ000581041-1]	MOLM-13 %inh	54.73
CC(=O)N[C@@H](Cc1ccc(OP(=O)(O)O)cc1)C(=O)N[C@H]1CCC(=O)N2CCC[C@@H](C(=O)NCc3ccc(Cl)cc3)N2C1=O [SJ000581056-1]	MOLM-13 %inh	-1.276

I'd like to know its MOLM-13 %inh. The compound in question is Cn1c(=O)c(Oc2ccccc2F)cc2cnc(NC3CCOCC3)nc21 [SJ000581061-1]
-1.076

* * *

Test system: MV4-11
Experiment: Secondary dose-response HTS, Cell Titer Glo
Assay type: cell-based, human
Details: Homo sapiens, MV4-11, read-out: average effective concentration, MV4-11
ENDPOINT NAME: pEC50
By convention, pEC50 is the negative base-10 log of a molar concentration.

I'd like to know its pEC50. The molecule in question is "Cc1cc(Nc2cc(N3CCN(C)CC3)nc(Sc3ccc(NC(=O)C4CC4)cc3)n2)[nH]n1"
7.17

* * *

Measured EC50, listed per entry for reference.
Test system: CMK
Experiment: Secondary dose-response HTS, Cell Titer Glo
Assay type: cell-based, human
Details: Homo sapiens; secondary high-throughput screen; CMK; read-out: average effective concentration, CMK
Write the answer as a number in µM, unit excluded.

I'd like to know its EC50. The compound in question is COc1cc(F)c(F)c(Nc2ccc(I)cc2F)c1NS(=O)(=O)C1(C[C@H](O)CO)CC1 [REFAMETINIB]
8.6

// query: CCN(CC)Cc1ccc2cc(COC(=O)Nc3ccc(C(=O)NO)cc3)ccc2c1 [GIVINOSTAT]
0.0037

// query: CCN(CC)CCCC(C)Nc1c2ccc(Cl)cc2nc2ccc(OC)cc12 (centres unmarked) [QUINACRINE]
7.7

* * *

System: M07e
Parameters: species or system AML cell lines (8); Primary HTS, single concentration about 10 uM, Cell Titer Glo viability; log10 luminescence, per cent inhibition relative to cycloheximide control
Conditions: 72 h, relative to cycloheximide control, log10 luminescence; inhibitor
ENDPOINT NAME: M07e %inh (%)
Write the answer as a number in %, unit excluded.

COMPOUND	TESTED TARGET	M07e %inh (%)
CN(C(=O)c1cc2ccccc2cc1C(=O)C(c1cccc2ccccc12)P(=O)(O)O)C1CCN(C(=O)c2ccccc2)CC1 (stereo not shown)	M07e	0.0007022

Pending compound:
Observed M07e %inh on M07e for "CC(C)=CCC/C(C)=C/CC/C(C)=C/CO" , please.
1.694

* * *

Test system: MV4-11
Parameters: species or system AML cell lines (8); Primary HTS, single concentration about 10 uM, Cell Titer Glo viability; log10 luminescence, per cent inhibition relative to cycloheximide control
Settings: 72 h, relative to cycloheximide control, log10 luminescence; inhibitor
Counter-ions that a name gives are not always drawn.
Measured MV4-11 %inh, listed per entry for reference.
Write the answer as a number in %, unit excluded.

I'd like to know its MV4-11 %inh. The compound in question is C[C@H](CC[C@@H]1OC1(C)C)[C@H]1CC[C@H]2[C@@H]3CC=C4C[C@@H](O)CC[C@]4(C)[C@H]3CC[C@]12C [SJ000561052-1, 24(S),25-EPOXYCHOLESTEROL]
-1.379

// query: N#Cc1c(NC(=O)c2cccc3ccccc23)sc2c1CCCC2 [SJ000573026-1]
80.18

// query: NC(N)=Nc1nc(CSCC/C(N)=N/S(N)(=O)=O)cs1 [SJ000285829-7, FAMOTIDINE]
-0.5719

// query: CS(=O)(=O)CCn1c(=O)c(Oc2ccc(F)cc2F)cc2cnc(NC3CCOCC3)nc21 [SJ000581023-1]
1.997

// query: CCC1(C)CC(=O)NC1=O (stereo not shown) [SJ000285397-7, ETHOSUXIMIDE]
-0.6847

// query: Fc1cccc(COc2ccc(Nc3ncnc4sc(-c5ccco5)cc34)cc2Cl)c1 [SJ000573002-1, U22476/39/2]
-1.439

// query: O=C(O[C@@H]1C[C@@H]2C[C@H]3C[C@H](C1)N2CC3=O)c1c[nH]c2ccccc12 [SJ000565162-1, DOLASETRON MESYLATE]
-0.3278

* * *

Tested on: MOLM-13
Assay: Secondary dose-response HTS, Cell Titer Glo
Assay type: cell-based, human
Details: Homo sapiens; secondary high-throughput screen; MOLM-13; read-out: average effective concentration, MOLM-13
ENDPOINT NAME: EC50

Check out these entries, answers already filled in.
COMPOUND	RESULT
CC1(C)CCC(CN2CCN(c3ccc(C(=O)NS(=O)(=O)c4ccc(NCC5CCOCC5)c([N+](=O)[O-])c4)c(Oc4cnc5[nH]ccc5c4)c3)CC2)=C(c2ccc(Cl)cc2)C1 [Venetoclax, reference compound]	> 10000 nM
COc1cccc2c1C(=O)c1c(O)c3c(c(O)c1C2=O)C[C@@](O)(C(=O)CO)C[C@@H]3O[C@H]1C[C@H](N)[C@H](O)[C@H](C)O1 [DOXORUBICIN]	36 nM
O=c1[nH]c(=O)n([C@H]2C[C@H](O)[C@@H](CO)O2)cc1F [FLOXURIDINE]	23 nM

I'd like to know its EC50. The compound in question is CCNC(=O)c1noc(-c2cc(C(C)C)c(O)cc2O)c1-c1ccc(CN2CCOCC2)cc1 [NVP-AUY922]
1 nM

// query: CO[C@H]1C[C@@H]2CC[C@@H](C)[C@@](O)(O2)C(=O)C(=O)N2CCCC[C@H]2C(=O)O[C@H]([C@H](C)C[C@@H]2CC[C@@H](O)[C@H](OC)C2)CC(=O)[C@H](C)/C=C(\C)[C@@H](O)[C@@H](OC)C(=O)[C@H](C)C[C@H](C)/C=C/C=C/C=C/1C [SIROLIMUS]
> 10000 nM

// query: C[C@@H](Oc1cc(-c2cnn(C3CCNCC3)c2)cnc1N)c1c(Cl)ccc(F)c1Cl [CRIZOTINIB]
3900 nM

// query: CC[C@H](C)C(=O)O[C@H]1C[C@@H](C)C=C2C=C[C@H](C)[C@H](CC[C@@H]3C[C@@H](O)CC(=O)O3)[C@H]21 [LOVASTATIN]
> 10000 nM

// query: CC(C(=O)Nc1cccc(/N=C/c2c(O)ccc3ccccc23)c1)c1ccccc1 (stereo not drawn) [SALERMIDE]
7000 nM

// query: Cc1cnc(NC(=O)Nc2cc(Br)c(C)cc2OC[C@@H]2CNCCO2)cn1 [RABUSERTIB]
400 nM

// query: O=C(O)CCCc1ccc(N(CCCl)CCCl)cc1 [CHLORAMBUCIL]
10000 nM
